Target: Dihydroorotate dehydrogenase (quinone), mitochondrial (Plasmodium falciparum (isolate 3D7)) (UniProt Q08210)
Sequence (Q08210 whole entry, looked up): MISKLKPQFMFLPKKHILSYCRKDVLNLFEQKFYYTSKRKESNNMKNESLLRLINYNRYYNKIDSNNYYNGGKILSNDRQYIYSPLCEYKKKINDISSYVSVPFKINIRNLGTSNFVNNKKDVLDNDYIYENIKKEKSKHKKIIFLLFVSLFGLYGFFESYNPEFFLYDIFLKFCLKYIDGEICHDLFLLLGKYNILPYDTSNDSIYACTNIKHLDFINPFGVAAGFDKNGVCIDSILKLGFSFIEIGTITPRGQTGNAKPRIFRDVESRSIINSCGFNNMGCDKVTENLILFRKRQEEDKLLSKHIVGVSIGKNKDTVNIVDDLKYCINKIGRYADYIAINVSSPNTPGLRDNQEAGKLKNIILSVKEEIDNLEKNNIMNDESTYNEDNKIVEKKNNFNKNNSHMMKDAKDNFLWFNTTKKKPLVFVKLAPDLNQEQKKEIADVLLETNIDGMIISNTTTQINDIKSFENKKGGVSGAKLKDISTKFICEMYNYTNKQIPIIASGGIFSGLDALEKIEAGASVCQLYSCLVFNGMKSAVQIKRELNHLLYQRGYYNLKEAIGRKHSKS
Test: PfDHODH enzyme inhibitors, primary screen, biochemical, C-terminal His tag, absorbance 600 nm (AID 1175);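 further: recombinant parasite enzyme with a five histidine tag at its C terminus; test concentration not given here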
Conditions: DCIP absorbance 600 nm, higher = more signal, called active from +8 up or from −8 down
Activity calls are given as the source filed them.
measurementType: composite z-score

// below: answered compounds
# compound, composite z-score
rows = [
    ("CCOC(=O)C[C@H]1[C@H](OC(=O)c2cc3ccccc3oc2=O)[C@@H](NC(=O)c2ccc(-c3ccccc3)cc2)c2cc(OCCCO)ccc2N1C(=O)c1ccccc1", "-2.74 (inactive)"),
    ("O=C(NCC(F)(F)F)[C@@H]1c2ccccc2C(=O)N(Cc2ccccc2C(F)(F)F)[C@H]1c1ccc(CO)cc1", "-0.184 (inactive)"),
    ("O=C1O[C@H](c2ccccc2)[C@H](c2ccccc2)N2[C@H]1[C@@H](C(=O)Nc1nc3ccccc3s1)[C@]1(C(=O)Nc3ccc(C#CCCO)cc31)[C@H]2c1ccc(O)cc1", "-0.253 (inactive)"),
    ("COc1ccc([Si](C)(C)[C@H]2[C@H](CCn3cc([C@H](O)c4ccccc4)nn3)O[C@@]3(C(=O)N(Cc4ccc(N5C(=O)c6cccc7cccc5c67)cc4)c4ccccc43)[C@@H]2C)cc1", "0.468 (inactive)"),
    ("C[N+](C)(C)CCCCCCNC(=O)[C@H]1C[C@H]2C(=O)NCC(=O)N2[C@H]1c1ccc(O)cc1", "-0.435 (inactive)"),
]

composite z-score reported for this compound `COC(=O)c1nc2oc1CC[C@@H](CO)NC(=O)N(C)Cc1cnnn1C[C@H](Cc1ccccc1)NC2=O` : -0.288 (inactive)

composite z-score measured on CN(C)C(=O)C1N=C(c2ccc(OCCCO)cc2)N(c2ccccc2)O1 (centres undefined) = -1.01 (inactive)

Item: C=CCC(OC(C)=O)[C@@H]1[C@@H](N(Cc2cccc3ccccc23)C(=O)Cc2ccc(F)cc2)c2cc(OCCCO)ccc2N1C(=O)c1ccc2ccccc2n1 (some centres undefined) | composite z-score: 0.451 (inactive)

// composite z-score value for `COC(=O)[C@@]1(Cc2ccc(F)cc2)[C@H]2c3cc(C(=O)N(C)C)n(CCc4ccc(O)c(OC)c4)c3C[C@H]2CN1C(=O)c1ccccc1` : 0.124 (inactive)

Lookup result for `O=C1N(Cc2ccccc2)Cc2ccccc2[C@@H]2OC(c3ccc(OCCCO)cc3)=N[C@]12CCS(=O)(=O)c1ccccc1` ; measured composite z-score: 0.094 (inactive)

Lookup result for CCOc1cc(C(O)C2C=CC3C(=O)N(c4ccccc4)C(=O)C3N2Nc2ccc(C#N)cc2)ccc1O (centres undefined) ; measured composite z-score: 0.45 (inactive)

# composite z-score (compound: `CCCCCCc1nc(C2CC2)cc2c1[Si](C(C)C)(C(C)C)O[C@H]2c1ccccc1` ) is 0.423 (inactive)

// sample `O=C(NCC(F)(F)F)[C@@H]1c2ccccc2C(=O)N(Cc2cc(F)cc(C(F)(F)F)c2)[C@H]1c1ccc(CO)cc1` , its composite z-score was 0.94 (inactive)

Lab note: `COc1ccc(-c2cc3c(c(CCc4ccccc4)n2)[Si](C(C)C)(C(C)C)OC3)cn1` gave composite z-score of -0.319 (inactive)

composite z-score reported for this compound `C=C(COC)C(=O)CC[C@@H](OC(=O)c1cccnc1)c1ccc(OCCO)cc1` : -3.49 (inactive)

Sure, the documented composite z-score for C=CCC(OC(C)=O)[C@@H]1[C@@H](N(Cc2cc3ccccc3o2)C(=O)Cc2ccc(F)cc2)c2cc(OCCCO)ccc2N1C(=O)c1ccc2ccccc2c1 (some centres undefined) is -1.04 (inactive)

The recorded composite z-score for entry O=C1NC(=O)C2C1C=CC(C(O)CCc1ccccc1)N2Nc1ccc(Cl)cc1Cl (centres undefined) equals -0.596 (inactive)

// composite z-score value for `C=CCOC(=O)[C@H]1[C@@H]2C(=O)O[C@@H](c3ccccc3)[C@@H](c3ccccc3)N2[C@@H](c2ccc(OCCOC(=O)[C@@H]3C[C@@H]4C(=O)N[C@@H](CCCCNC(C)=O)C(=O)N4[C@@H]3c3ccc(O)cc3)cc2)[C@]12C(=O)Nc1ccc(I)cc12` : 0.158 (inactive)
